// provenance: patent US11739074B2

tgt: KRAS G12V (Homo sapiens, UniProt P01116+P62937, G12V)
Sequence (P01116 1-169 isoform P01116-2 G12V limits assumed): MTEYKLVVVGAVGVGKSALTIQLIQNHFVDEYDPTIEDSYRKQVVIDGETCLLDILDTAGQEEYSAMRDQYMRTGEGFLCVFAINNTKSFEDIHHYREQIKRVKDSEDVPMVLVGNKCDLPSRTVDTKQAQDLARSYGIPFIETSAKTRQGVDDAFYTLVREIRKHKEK
Sequence (P62937 whole entry): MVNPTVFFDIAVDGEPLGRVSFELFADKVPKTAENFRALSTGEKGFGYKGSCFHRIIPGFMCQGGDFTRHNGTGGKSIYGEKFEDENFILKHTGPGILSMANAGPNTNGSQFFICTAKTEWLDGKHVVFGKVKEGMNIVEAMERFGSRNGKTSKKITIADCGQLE
experimental details: Ras-Raf disruption/FRET/MOA assay, KRAS G12V
Format: biochemical
measurement conditions: disruption of BRAF RBD binding, with Cyclophilin A; read-out: KRAS G12V FRET IC50
I'd be grateful if you could share measured IC50 for these entries.

Asked: Record request: IC50 value, item `CCn1c(-c2cnccc2COC)c2c3cc(ccc31)-c1cc(O)cc(c1)C[C@H](NC(=O)[C@H](C(C)C)N(C)C(=O)[C@H]1CCN(C(=O)N3C[C@@H]3C(=O)OC)C1)C(=O)N1CCC[C@H](N1)C(=O)OCC(C)(C)C2`
Given back: 100 to 1000 nM

Asked: Record request: IC50 value, item `CCn1c(-c2cnccc2COC)c2c3cc(ccc31)-c1cc(O)cc(c1)C[C@H](NC(=O)[C@H](C(C)C)N(C)C(=O)CN(C)C(=O)[C@@H]1CN1C(C)=O)C(=O)N1CCC[C@H](N1)C(=O)OCC(C)(C)C2`
Given back: 100 to 1000 nM
